# measurement protocol: In vitro cytotoxicity / potentiation of Actinomycin D in human KB epidermoid carcinoma cells, wildtype KB 3-1 (MTT)
# Format: cell-based
# condition details: human, kb 3-1 cells, 10 μM potentiating agent alone, fraction of untreated cultures, read-out: Cytotoxicity, normalized absorbance, Wildtype KB 3-1, 0 (no Act D)
Counter-ions that a name gives are not always drawn.
recorded endpoint: viability at 96 h, 10 µM (%)
Write down the numeric answer in % and omit the unit.

Qu. For the compound shown here, Fc1ccc2c(c1)/C(=C/CCN1CCCC1)c1ccccc1CO2 [(S)] , give the reported viability at 96 h, 10 µM.
Ans. 67

Qu. For the compound shown here, CCN(CC)CC/C=C1/c2ccccc2COc2ccc(Br)cc21 , give the reported viability at 96 h, 10 µM.
Ans. 30

Qu. For the compound shown here, Brc1cccc2c1OCc1ccccc1C2=CCN1CCCC1 , give the reported viability at 96 h, 10 µM.
Ans. 80

Qu. For the compound shown here, CN(C)CC/C=C1/c2ccccc2COc2ccc(F)cc21 , give the reported viability at 96 h, 10 µM.
Ans. 77

Qu. For the compound shown here, CN(C)CCC=C1c2ccc(Br)cc2COc2ccccc21 , give the reported viability at 96 h, 10 µM.
Ans. 97

Qu. For the compound shown here, Brc1ccc2c(c1)/C(=C\CN1CCCC1)c1ccccc1CO2 , give the reported viability at 96 h, 10 µM.
Ans. 78

Qu. For the compound shown here, CN(C)CC/C=C1/c2ccccc2COc2c(Br)cccc21 , give the reported viability at 96 h, 10 µM.
Ans. 51

Qu. For the compound shown here, CN(C)CC/C=C1\c2ccccc2COc2ccc(Br)cc21 [(B), hydrochloride] , give the reported viability at 96 h, 10 µM.
Ans. 83

Qu. For the compound shown here, Brc1ccc2c(c1)/C(=C\CCN1CCCC1)c1ccccc1CO2 , give the reported viability at 96 h, 10 µM.
Ans. 74

Qu. For the compound shown here, Brc1ccc2c(c1)/C(=C\CCN1CCCC1)c1cc(Br)ccc1OC2 [(R)] , give the reported viability at 96 h, 10 µM.
Ans. 36

Qu. For the compound shown here, Brc1ccc2c(c1)/C(=C/CCN1CCCC1)c1cc(Br)ccc1OC2 , give the reported viability at 96 h, 10 µM.
Ans. 64

Qu. For the compound shown here, Brc1ccc2c(c1)/C(=C/CCN1CCCC1)c1ccccc1CO2 , give the reported viability at 96 h, 10 µM.
Ans. 100

Qu. For the compound shown here, CN(C)CC/C=C1/c2cc(Br)ccc2COc2ccccc21 , give the reported viability at 96 h, 10 µM.
Ans. 100

Qu. For the compound shown here, CN(C)CC/C=C1/c2ccccc2COc2ccc(Br)cc21.Cl.Cl.Cl [(A), trihydrochloride] , give the reported viability at 96 h, 10 µM.
Ans. 98

Qu. For the compound shown here, Brc1ccc2c(c1)/C(=C/CCN1CCCC1)c1ccccc1OC2 , give the reported viability at 96 h, 10 µM.
Ans. 96

Qu. For the compound shown here, CN(C)CC/C=C1\c2ccccc2COc2ccc(F)cc21 , give the reported viability at 96 h, 10 µM.
Ans. 65

Qu. For the compound shown here, CN(C)CC/C=C1/c2ccccc2COc2cc(Br)ccc21 [(E)] , give the reported viability at 96 h, 10 µM.
Ans. 89

Qu. For the compound shown here, Fc1ccc2c(c1)/C(=C\CCN1CCCC1)c1ccccc1CO2 , give the reported viability at 96 h, 10 µM.
Ans. 81

These entries and their values trace back to patent US5395610A.
